# Target Or Test System: Gcr1 (UniProt P07261)
# Sequence: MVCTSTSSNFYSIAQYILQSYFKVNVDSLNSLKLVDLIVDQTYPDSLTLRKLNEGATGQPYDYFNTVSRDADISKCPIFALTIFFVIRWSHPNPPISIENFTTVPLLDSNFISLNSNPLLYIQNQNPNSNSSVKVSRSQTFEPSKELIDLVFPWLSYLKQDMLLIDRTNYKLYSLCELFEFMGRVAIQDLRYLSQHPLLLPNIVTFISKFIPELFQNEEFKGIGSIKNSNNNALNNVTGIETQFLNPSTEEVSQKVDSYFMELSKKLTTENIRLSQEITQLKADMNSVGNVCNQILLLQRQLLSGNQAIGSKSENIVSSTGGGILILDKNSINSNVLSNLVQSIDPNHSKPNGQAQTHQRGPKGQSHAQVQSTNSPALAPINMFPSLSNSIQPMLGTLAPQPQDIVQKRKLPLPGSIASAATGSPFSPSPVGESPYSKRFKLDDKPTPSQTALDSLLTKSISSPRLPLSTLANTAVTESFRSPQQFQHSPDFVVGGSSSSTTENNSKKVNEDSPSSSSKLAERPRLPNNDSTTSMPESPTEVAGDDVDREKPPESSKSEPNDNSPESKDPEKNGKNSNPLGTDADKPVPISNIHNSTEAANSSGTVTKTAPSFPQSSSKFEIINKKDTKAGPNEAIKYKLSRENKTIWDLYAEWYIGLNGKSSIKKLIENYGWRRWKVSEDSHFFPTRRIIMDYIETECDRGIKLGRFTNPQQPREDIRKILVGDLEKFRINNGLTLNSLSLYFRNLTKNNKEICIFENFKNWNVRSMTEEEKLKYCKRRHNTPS
# Assay Summary: PBM E-score (8-mer binding enrichment) (E-score (-0.5 to 0.5)); higher = stronger / more preferred TF binding
# Measurement Conditions: protein concentration: 100 nM; construct: GST-full length
Over roughly 33,000 sequences, “E-score (-0.5 to 0.5)” has its median near -0.011; the highest 2% begin near 0.28. The sample holds the highest values, similar sequences and a random draw of the others, so the mix is not that of the screen.
Hi there, I'd appreciate the recorded PBM E-score for every entry that follows.
The answer should be a number; do not append a unit.

Req: Give the reported PBM E-score for this sequence. "CATTTGGC"
Resp: -0.0265

Req: State, in one line, measured PBM E-score of "CCTCTCGC"
Resp: -0.0389

Req: Dear colleague, please send me the reported PBM E-score for "ACAAGCTA" when you can.
Resp: -0.0171

Req: Supply reported PBM E-score belonging to this sequence: "GACAAGAC"
Resp: 0.0539

Req: Tell us which PBM E-score value is on record for "CAACGCAC"
Resp: -0.152

Req: Provide one value: measured PBM E-score of "CGCTGCCG"
Resp: 0.175

Req: // Input: "CGCCTGAA" . Output its PBM E-score only.
Resp: 0.143

Req: Please look at this sequence and report its PBM E-score: "CAAGAGCG"
Resp: 0.0229

Req: Could you please provide reported PBM E-score for "AGATGCTC" ? Thanks!
Resp: 0.0444

Req: Entry "GGCAGCCC" needs its PBM E-score filled in; supply it.
Resp: 0.324

Req: // Input: "CACTCTGG" . Output its PBM E-score only.
Resp: 0.0408

Req: For the sequence "ATATGCGA" , report PBM E-score.
Resp: 0.0152

Req: Provide one value: measured PBM E-score of "AGATGCTA"
Resp: 0.25

Req: Return the recorded PBM E-score value; entry: "CGCCCCGA"
Resp: -0.0435

Req: Recall and state the measured PBM E-score for "GTATGCGA" .
Resp: 0.291

Req: Provide one value: measured PBM E-score of "AGATGCTG"
Resp: 0.282

Req: For the sequence "CAAGGAAC" , give its measured PBM E-score value.
Resp: 0.0885

Req: State, in one line, measured PBM E-score of "GGTTAACC"
Resp: -0.194

Req: Tell me PBM E-score reported for "CGAGACAG"
Resp: -0.0925

Req: Note PBM E-score for the sequence shown: "AGATGCCT"
Resp: 0.17

Req: Provide only the value of recorded PBM E-score for "CTATGCGA"
Resp: -0.14

Req: Quickly give me recorded PBM E-score for "AAACGCCG"
Resp: 0.0308

Req: Return PBM E-score (reported value) for this sequence: "GATGGAAA"
Resp: 0.029

Req: Give reported PBM E-score value for "CGCAGCCA"
Resp: 0.365

Req: Look up and report measured PBM E-score for this entry: "CGCAGCGA"
Resp: 0.22

Req: Give the measured PBM E-score for "AGATTTCG"
Resp: 0.113

Req: Please supply the value of reported PBM E-score for the item "AAACAAGG"
Resp: 0.16

Req: Please list PBM E-score recorded for the sequence "AGATGCCA"
Resp: 0.385

Req: Provide only the value of recorded PBM E-score for "GAATGCTA"
Resp: -0.121

Req: Complete the entry with PBM E-score for "AGCTGCCG"
Resp: 0.289

Req: For the sequence "ACGCCGGA" , give its reported PBM E-score.
Resp: 0.0899

Req: Give recorded PBM E-score. "AGAGCAGG"
Resp: 0.0116

Req: For the sequence "GTCAAAAA" , give its measured PBM E-score value.
Resp: 0.144

Req: Report PBM E-score, nothing else, for this sequence: "CGATGCTA"
Resp: 0.266

Req: Assign PBM E-score to the following record: "AGTCCGTG"
Resp: -0.0968

Req: Given the sequence "ATGTCTAA" , write its reported PBM E-score.
Resp: -0.0649

Req: Specify PBM E-score for "GGCAGCAC" and stop.
Resp: -0.0566

Req: Please supply the value of reported PBM E-score for the item "CGGGCGGC"
Resp: 0.0469

Req: Please indicate PBM E-score recorded for "TAGCCCCA"
Resp: 0.139

Req: Please report PBM E-score for the following sequence: "TGCAGCCA"
Resp: 0.00515

Req: Query PBM E-score for "CACAGAGG"
Resp: -0.185

Req: For "GTGGGAGA" , write its PBM E-score.
Resp: 0.0205

Req: Give the reported value of PBM E-score for this record: "AGCAGCCC"
Resp: 0.2

Req: Consider the sequence "CGCAGCCG" and give its recorded PBM E-score.
Resp: 0.0939

Req: Provide only the value of recorded PBM E-score for "GCCAGCCA"
Resp: -0.0514

Req: Indicate the recorded PBM E-score value for this sequence: "AATTGTTC"
Resp: 0.0249

The measurements presented in this section are drawn from the supplement of paper PMC3334620.
